Reference for the values: patent US20220073608A1

- SYSTEM NAME: T1, monkey SEMA4D, full length, on CHO-K1 cells (CHO-K1 cSEMA4D) (monkey)
- T1 construct: whole, on cells; also called monkey SEMA4D recombinant cells
- ASSAY DETAILS: FACS, CHO-K1 cSEMA4D cells; Ab 66.7 nM
REPORTED METRIC: MFI
Please respond with just the number, no unit label.

{"BINDER": "42B7G2 (antibody, V domains shown, Mouse monoclonal antibody purified from hybridoma supernatant on protein A) VH: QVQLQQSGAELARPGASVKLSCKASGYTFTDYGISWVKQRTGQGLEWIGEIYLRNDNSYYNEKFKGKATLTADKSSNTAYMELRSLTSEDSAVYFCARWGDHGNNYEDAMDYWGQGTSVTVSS VL: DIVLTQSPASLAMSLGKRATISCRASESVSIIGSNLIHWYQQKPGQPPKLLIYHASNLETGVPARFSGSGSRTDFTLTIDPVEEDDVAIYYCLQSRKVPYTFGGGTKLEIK", "NUMBER": 2670}

**Q:** Reported MFI for 31G10C5 (antibody, V domains shown, Mouse monoclonal antibody purified from hybridoma supernatant on protein A) VH: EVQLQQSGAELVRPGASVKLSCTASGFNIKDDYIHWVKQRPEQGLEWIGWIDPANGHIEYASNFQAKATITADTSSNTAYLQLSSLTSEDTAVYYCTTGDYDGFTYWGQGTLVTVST VL: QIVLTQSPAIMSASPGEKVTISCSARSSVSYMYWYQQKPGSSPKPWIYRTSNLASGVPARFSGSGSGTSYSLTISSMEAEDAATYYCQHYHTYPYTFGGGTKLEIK : what is it?
**A:** 4600
